# CC50 per entry for HEK293T/17 cells
measurement name: CC50

[[record]]
compound = "O=C1C2CCCN2C(c2ccco2)N1c1ccc([N+](=O)[O-])cc1 (stereo not shown)"
result_value = "260 µM"

[[record]]
compound = "CSCCC(N)C(=O)Oc1ccc(C2N(c3ccc([N+](=O)[O-])cc3)C(=O)C3CCCN32)cc1.Cl (stereo not shown)"
result_value = "394 µM"

[[record]]
compound = "CSCCC(NC(=O)OC(C)(C)C)C(=O)Nc1ccc(C2N(c3ccc([N+](=O)[O-])cc3)C(=O)C3CCCN32)cc1 (stereo not shown)"
result_value = "520 µM"

[[record]]
compound = "COc1cc(C2N(c3ccc([N+](=O)[O-])cc3)C(=O)C3CCCN32)ccc1O (stereo not shown)"
result_value = "314 µM"

[[record]]
compound = "COc1ccc(CC2N(c3ccc([N+](=O)[O-])cc3)C(=O)C3CCCN32)cc1OC (stereo not shown)"
result_value = "439 µM"

[[record]]
compound = "O=C1C2CCCN2C(c2ccc(O)cc2)N1c1ccc([N+](=O)[O-])cc1 (stereo not shown)"
result_value = "277 µM"

[[record]]
compound = "CSCCC(NC(=O)OC(C)(C)C)C(=O)Oc1ccc(C2N(c3ccc([N+](=O)[O-])cc3)C(=O)C3CCCN32)cc1 (stereo not shown)"
result_value = "908 µM"

